The measured values listed here are drawn from patent US20220324939A1.

# target-entity: T1, MAGE-A4 peptide on HLA-A*02:01 (human)
# T1 peptide: GVYDGREHTV
# experiment-notes: multimer staining
quantity-kind: binding result

Known binding result results, listed for orientation:
[[record]]
binder = "PN45489 (TCR, V domains shown, stained with anti-mouse TCR constant region H57-597; full-length chains on transfected CHO cells; also called TCR No. 48) V domain 1: TQLLEQSPQFLSIQEGENLTVYCNSSSVFSSLQWYRQEPGEGPVLLVTVVTGGEVKKLKRLTFQFGDARKDSSLHITAAQPGDTGLYLCAEDGGSQGNLIFGKGTKLSVKP V domain 2: DVKVTQTSRYLVKRTGEKVFLECVQDMDHENMFWYRQDPGLGLRLIYFSYDVKMKEKGDIPEGYSVSREKKERFSLILESASTNQTSMYLCASSLQGRYYGYTFGSGTRLTVV"
quantity_kind = "binding result"
result = "recognises"

[[record]]
binder = "PN45581 (TCR, V domains shown, stained with anti-mouse TCR constant region H57-597; full-length chains on transfected CHO cells; also called TCR No. 44) V domain 1: AQKITQTQPGMFVQEKEAVTLDCTYDTSDPSYGLFWYKQPSSGEMIFLIYQGSYDQQNATEGRYSLNFQKARKSANLVISASQLGDSAMYFCAMREGPGNNARLMFGDGTQLVVKP V domain 2: EAQVTQTPRYLITVTGKKLTVTCSQNMNHEYMSWYRQDPGLGLRQIYYSMNVEVTDKGDVPEGYKVSRKEKRNFPLILESPSPNQTSLYFCASSLWTGGGYTFGSGTRLTVV"
quantity_kind = "binding result"
result = "recognises"

[[record]]
binder = "PN45494 (TCR, V domains shown, full-length chains on transfected CHO cells; also called TCR No. 50) V domain 1: GNSVTQIEGPVTLSEEAFLTINCTYTATGYPSLFWYVQYPGEGLQLLLKATKADDKGSNKGFEATYRKETTSFHLEKGSVQVSDSAVYFCALSDTRDDKTIFGKGTRLHILP V domain 2: DVKVTQSSRYLVKRTGEKVFLECVQDMDHENMFWYRQDPGLGLRLIYFSYDVKMKEKGDIPEGYSVSREKKERFSLILESASTNQTSMYLCASSLQGRYYGYTFGSGTRLTVV"
quantity_kind = "binding result"
result = "recognises"

[[record]]
binder = "PN45481 (TCR, V domains shown, full-length chains on transfected CHO cells; also called TCR No. 54) V domain 1: GNSVTQMEGPVTLSEEAFLTINCTYTATGYPSLFWYVQYPGEGLQLLLKATKADDKGSNKGFEATYRKETTSFHLEKGSVQVSDSAVYFCALSDTRDDKIIFGKGTRLHILP V domain 2: DVKVTQSSRYLVKRTGEKVFLECVQDMDHENMFWYRQDPGLGLRLIYFSYDVKMKEKGDIPEGYSVSREKKERFSLILESASTNQTSMYLCASSLQGRYYGYTFGSGTRLTVV"
quantity_kind = "binding result"
result = "recognises"


Please look at the following binder next.
Lookup: Can you share its binding result? I mean this binder: PN45593 (TCR, V domains shown, stained with anti-mouse TCR constant region H57-597; full-length chains on transfected CHO cells; also called TCR No. 40) V domain 1: AQKITQTQPGMFVQEKEAVTLDCTYDTSDPSYGLFWYKQPSSGEMIFLIYQGSYDQQNATEGRYSLNFQKARKSANLVISASQLGDSAMYFCAMREGPGNNARLMFGDGTQLVVKP V domain 2: NAGVTQTPKFRVLKTGQSMTLLCAQDMNHEYMYWYRQDPGMGLRLIHYSVGEGTTAKGEVPDGYNVSRLKKQNFLLGLESAAPSQTSVYFCASSYWDRGSPLHFGNGTRLTVT
Found: recognises
